Biological target: Human Siglec-9-Fc (recombinant human Siglec-9 extracellular domain Q18-G348 fused to human IgG1 Fc) (human)
Sequence (chain, as listed by the source limits assumed): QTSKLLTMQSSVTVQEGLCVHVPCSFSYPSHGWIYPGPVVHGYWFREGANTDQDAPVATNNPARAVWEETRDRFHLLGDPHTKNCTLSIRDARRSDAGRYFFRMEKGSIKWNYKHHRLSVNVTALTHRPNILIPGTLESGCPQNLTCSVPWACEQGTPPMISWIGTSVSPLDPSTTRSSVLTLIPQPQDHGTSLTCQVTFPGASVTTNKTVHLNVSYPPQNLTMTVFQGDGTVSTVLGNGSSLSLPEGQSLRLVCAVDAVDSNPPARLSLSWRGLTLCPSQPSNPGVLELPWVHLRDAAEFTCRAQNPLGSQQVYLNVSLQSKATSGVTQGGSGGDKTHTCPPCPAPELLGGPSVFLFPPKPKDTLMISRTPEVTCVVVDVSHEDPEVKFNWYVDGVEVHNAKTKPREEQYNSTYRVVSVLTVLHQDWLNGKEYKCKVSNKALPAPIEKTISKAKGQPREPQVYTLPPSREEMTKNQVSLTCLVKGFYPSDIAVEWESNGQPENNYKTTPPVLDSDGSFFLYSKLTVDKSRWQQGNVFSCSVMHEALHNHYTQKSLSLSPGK
Experiment: BLI binning, hSiglec-9-Fc on AHC sensor; competitor bound first (row): 2F15
Property name: maximum binding nm shift (nm)
Value expressed in nm; do not type the unit.

{"Binder": "12G23 (antibody, V domains shown) VH: EVQLQQSGPELVRPGASVKMSCKASGYTFTDYNMHWVKQSHGKSLEWIGYINPNNGGTSYNQKFKGKATLTVNKSSSTAYMELRSLTSDDSAVYYCAREGYGNYPFYWGQGTTLTVSS VL: DIVLTQSPASLAVSLGQRVTISCRGSESVEYYGTSLMQWYQQKPGQPPKLLIYAASNVESGVPARFSGSGSGTDFSLNIHPVEEDDIAMYFCQQDRKVPYTFGGGTKLEIK", "Units text": "nm", "maximum binding nm shift": 0.001}
{"Binder": "12P18 (antibody, V domains shown) VH: QVQLQQSGAELVRPGASVTLSCKASGYTFTDYEMHWVKQTPVHGLEWIGAIDPEAGGTAYNRKFKGKAILTADKSSSTAYMELRSLTSEDSAVYYCTNLGRDYWGQGTTLTVSS VL: DIVMSQSPSSLAVSVGEKVTMSCKSSQSLLYSSTQKNYLAWYQQKPGQSPKRLIYWASTRESGVPDRFTGSGSGTDFTLTISSVKAEDLAVYYCQQYYSYWTFGGGTKLEIK", "Units text": "nm", "maximum binding nm shift": 0.352}

Consider now this further binder.
[in] Tell me the measured maximum binding nm shift of 9C15 (antibody, V domains shown) VH: QVQLQQPGAELVKPGASVKMSCKASGYTFTSYWITWLNQRPGQGLEWIGDIYPGSGGTNYNERFKSKATLTVDTSSSTAYMQLSSLTSEDSAVYYCARSGGWAMDYWGQGTSVTVSS VL: DIQMTQTTSSLSASLGDRVTISCRASQDISNYLNWYQQKPDGTVKLLIYYKSGLHSGVPSRFSGSGSGTDYSLTISNLEQEDIATYFCQQGNTLPFTFGGGTKLEIK , please.
[out] 0.399
